Values from patent US20250002458A1

ASSAY OVERVIEW: Stability of select salts of Compound 1 at 5, 25 and 40° C. over 6 months, purity by HPLC
Assay type: physicochemical
CONDITIONS USED: 25° C., 2nd Month
Structures can show the parent of a compound that is named as a salt.

- COMPOUND: "C[C@H](NC(=O)OC[n+]1cccc(C(=O)NCCO[N+](=O)[O-])c1)C1CCCCC1 [Compound 1 Esylate Salt]"
  Purity: 84.4
- COMPOUND: "C[C@H](NC(=O)OC[n+]1cccc(C(=O)NCCO[N+](=O)[O-])c1)C1CCCCC1 [Compound 1 Sulphate Salt]"
  Purity: 56.9
- COMPOUND: "C[C@H](NC(=O)OC[n+]1cccc(C(=O)NCCO[N+](=O)[O-])c1)C1CCCCC1 [Compound 1 Phosphate Salt]"
  Purity: 83.7
- COMPOUND: "C[C@H](NC(=O)OC[n+]1cccc(C(=O)NCCO[N+](=O)[O-])c1)C1CCCCC1 [Compound 1 4-Bromobesylate Salt]"
  Purity: 84.2
- COMPOUND: "C[C@H](NC(=O)OC[n+]1cccc(C(=O)NCCO[N+](=O)[O-])c1)C1CCCCC1 [Compound 1 Trifluoroacetate Salt]"
  Purity: 94.6
- COMPOUND: "C[C@H](NC(=O)OC[n+]1cccc(C(=O)NCCO[N+](=O)[O-])c1)C1CCCCC1 [Compound 1 Besylate Salt]"
  Purity: 79.3
- COMPOUND: "C[C@H](NC(=O)OC[n+]1cccc(C(=O)NCCO[N+](=O)[O-])c1)C1CCCCC1 [Compound 1 Triflate Salt]"
  Purity: 91.1
- COMPOUND: "C[C@H](NC(=O)OC[n+]1cccc(C(=O)NCCO[N+](=O)[O-])c1)C1CCCCC1 [Compound 1 4-Nitrobesylate Salt]"
  Purity: 93.1
- COMPOUND: "C[C@H](NC(=O)OC[n+]1cccc(C(=O)NCCO[N+](=O)[O-])c1)C1CCCCC1 [Compound 1 Perchlorate Salt]"
  Purity: 89.4
